Cited source for all entries: paper PMC8838847

# assay: MTT cytotoxicity assay, HEK293T normal cells
# Assay type: cell-based, human
# condition-summary: human, HEK293T cells (normal cell line)
measure: IC50 at 72 h

>  <molecule>
Cc1cccc(/C=C/c2nc(-c3ccc(F)cc3)cs2)c1

>  <IC50 at 72 h>
> 10 µM

$$$$
>  <molecule>
CC(C)(C)c1ccc(/C=C/c2nc(-c3ccc(F)cc3)cs2)cc1

>  <IC50 at 72 h>
> 10 µM

$$$$
>  <molecule>
CC[C@@]1(O)C(=O)OCc2c1cc1n(c2=O)Cc2cc3ccccc3nc2-1 [CPT, camptothecin, reference compound]

>  <IC50 at 72 h>
0.1 µM

$$$$

Next, consider the following molecule.
Challenge: Which value of IC50 at 72 h has been reported for `CC(C)(C)c1ccc(/C=C/c2nc(-c3ccc(Cl)cc3)cs2)cc1` in the records?
Response given: > 10 µM

====

Collected melting point values appear next to each entry.

>  <molecule>
COc1ccccc1/C=C/c1nc(-c2ccc(Cl)cc2)cs1 [Compound 24]

>  <melting point>
93 to 95 °C

$$$$

Challenge: Which value of melting point has been reported for Fc1ccc(/C=C/c2nc(-c3ccc(F)cc3)cs2)cc1 [Compound 15] in the records?
Response given: 147 to 149 °C

Challenge: Let us now turn to Fc1ccc(-c2csc(/C=C/c3ccccc3Cl)n2)cc1 [Compound 16]
Response given: 97 to 98 °C

Challenge: Let us now turn to Cc1cccc(/C=C/c2nc(-c3ccc(Br)cc3)cs2)c1 [Compound 26]
Response given: 174 to 176 °C

Challenge: Let us now turn to Oc1ccc(/C=C/c2nc(-c3ccc(Br)cc3)cs2)cc1 [Compound 35]
Response given: 204 to 205 °C

Challenge: Let us now turn to Fc1ccc(-c2csc(/C=C/c3ccc(C(F)(F)F)cc3)n2)cc1 [Compound 10]
Response given: 111 to 113 °C

Challenge: Let us now turn to COc1ccc(/C=C/c2nc(-c3ccc(Br)cc3)cs2)cc1 [Compound 32]
Response given: 189 to 191 °C

Challenge: Let us now turn to Oc1ccccc1/C=C/c1nc(-c2ccc(Br)cc2)cs1 [Compound 33]
Response given: 226 to 228 °C

Challenge: Let us now turn to CC(C)(C)c1ccc(/C=C/c2nc(-c3ccc(Cl)cc3)cs2)cc1 [Compound 23]
Response given: 74 to 75 °C

====

# Test system: human breast cancer (MCF-7) cells
# assay: MTT cytotoxicity assay, MCF-7
# Format: cell-based
# condition-summary: 72 h, five doses 0.01-100 µM
measure: pIC50
// pIC50: -log10(molar conc.)

Examples with answers:
>  <compound>
CC(C)(C)c1ccc(/C=C/c2nc(-c3ccc(Cl)cc3)cs2)cc1 [Compound 23]

>  <pIC50>
5.14

$$$$
>  <compound>
COc1cccc(/C=C/c2nc(-c3ccc(F)cc3)cs2)c1 [Compound 13]

>  <pIC50>
5.01

$$$$

Next, consider the following compound.
Challenge: Which value of pIC50 has been reported for CC(C)(C)c1ccc(/C=C/c2nc(-c3ccc(F)cc3)cs2)cc1 [Compound 11] in the records?
Response given: 5.20

====

Collected melting point values appear next to each entry.

Examples with answers:
>  <compound>
Cc1cccc(/C=C/c2nc(-c3ccc(Cl)cc3)cs2)c1

>  <melting point>
133 to 134 °C

$$$$
>  <compound>
CC(C)=CCOc1cccc(/C=C/c2nc(-c3ccc(Br)cc3)cs2)c1

>  <melting point>
122 to 123 °C

$$$$
>  <compound>
Cc1ccc(/C=C/c2nc(-c3ccc(F)cc3)cs2)cc1

>  <melting point>
164 to 166 °C

$$$$
>  <compound>
Fc1ccc(-c2csc(/C=C/c3ccc(Cl)cc3Cl)n2)cc1

>  <melting point>
131 to 133 °C

$$$$
>  <compound>
FC(F)(F)c1ccc(/C=C/c2nc(-c3ccc(Br)cc3)cs2)cc1

>  <melting point>
102 to 103 °C

$$$$
>  <compound>
CC(C)=CCOc1ccc(/C=C/c2nc(-c3ccc(Br)cc3)cs2)cc1

>  <melting point>
134 to 135 °C

$$$$
>  <compound>
Fc1ccc(-c2csc(/C=C/c3cccc(Br)c3)n2)cc1

>  <melting point>
142 to 144 °C

$$$$
>  <compound>
CC(C)(C)c1ccc(/C=C/c2nc(-c3ccc(Br)cc3)cs2)cc1

>  <melting point>
89 to 90 °C

$$$$
>  <compound>
Fc1ccc(-c2csc(/C=C/c3ccccc3Br)n2)cc1

>  <melting point>
94 to 95 °C

$$$$
>  <compound>
Cc1ccccc1/C=C/c1nc(-c2ccc(F)cc2)cs1

>  <melting point>
74 to 75 °C

$$$$

Challenge: Which value of melting point has been reported for `Cc1cccc(/C=C/c2nc(-c3ccc(F)cc3)cs2)c1` in the records?
Response given: 148 to 149 °C

Challenge: Let us now turn to `CC(C)(C)c1ccc(/C=C/c2nc(-c3ccc(F)cc3)cs2)cc1`
Response given: 146 to 148 °C

Challenge: Let us now turn to `COc1ccccc1/C=C/c1nc(-c2ccc(F)cc2)cs1`
Response given: 73 to 74 °C

Challenge: Let us now turn to Fc1ccc(-c2csc(/C=C/c3ccccc3)n2)cc1 [Compound 6, (E)-4-(4-fluorophenyl)-2-styrylthiazole]
Response given: 129 to 130 °C

Challenge: Let us now turn to `Fc1ccc(-c2csc(/C=C/c3ccc(Cl)cc3)n2)cc1`
Response given: 171 to 173 °C

Challenge: Let us now turn to `Clc1ccc(-c2csc(/C=C/c3ccccc3Cl)n2)cc1`
Response given: 109 to 110 °C

Challenge: Let us now turn to `Cc1ccccc1/C=C/c1nc(-c2ccc(Cl)cc2)cs1`
Response given: 83 to 84 °C

Challenge: Let us now turn to `COc1cccc(/C=C/c2nc(-c3ccc(Br)cc3)cs2)c1`
Response given: 112 to 113 °C

Challenge: Let us now turn to `COc1cccc(/C=C/c2nc(-c3ccc(F)cc3)cs2)c1`
Response given: 115 to 116 °C
